Source of measurements: patent US9908908B2

- assayOverview: Cytotoxicity in cells free of virus (anti-HIV test)
- Type: cell-based
- experimentalSetup: human
measurementName: CC50 at 3 days (µM)
Provide the reading as a plain figure in µM.

// CC50 at 3 days lookup, molecule = CC(C)OC(=O)OCOP(=O)(CO[C@H](C)Cn1cnc2c(N)ncnc21)OCOC(=O)OC(C)C [Tenofovir Disoproxil, reference compound] , result: 16.9

###

- assayOverview: Cytotoxicity in cells free of virus (anti-HIV test)
- Type: cell-based
- experimentalSetup: human; cells free of virus, 3 days, luminescent signal; read-out: Toxicity CC50
Please provide measured CC50 at 3 days for the entries that follow.

// CC50 at 3 days lookup, molecule = CC(C)OC(=O)[C@H](C)N[P@](=O)(CO[C@H](C)Cn1cnc2c(N)ncnc21)Oc1ccccc1 [GS-7340, reference compound] , result: > 150 µM

// CC50 at 3 days lookup, molecule = CC(C)OC(=O)C(C)(C)N[P@](=O)(CO[C@H](C)Cn1cnc2c(N)ncnc21)Oc1ccccc1 [Ia1] , result: > 150 µM
